In this section we review reported F (APRIL) values for a set of binders.
Biological target: T1, Murine APRIL (mouse, UniProt Q9D777 105-241, limits assumed)
T1 sequence (looked up): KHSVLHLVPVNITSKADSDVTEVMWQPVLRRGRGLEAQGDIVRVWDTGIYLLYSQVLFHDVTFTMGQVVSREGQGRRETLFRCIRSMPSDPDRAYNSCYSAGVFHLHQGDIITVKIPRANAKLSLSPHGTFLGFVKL
Test: shotgun scan, phage display
Experimental: Phage from each of the libraries described above were subjected to rounds of binding selection against APRIL, BAFF, or anti-tag antibody (3C8:2F4 Genentech, Inc.) immobilized on 96-well Nunc Maxisorp immunoplates (Sidhu, 2001). […] Enrichment was calculated from the ratio of the phage titer eluted from the target-coated wells to the phage titer eluted from the BSA-coated wells. […] For APRIL-binding, 71, 40, and 54 sequences were analyzed from libraries one, two and three, respectively. […]
Lab note: jot the number down without any unit.

| binder | F (APRIL) |
| --- | --- |
| SLSCRKEQGKFYDHLLRACISCASICGQHPKQCAYFCENKLR (receptor, phage library variant, format as m9) [TACI_d2 D85A] | 0.5 |
| SLSCGKEQGKFYDHLLRDCISCASICGQHPKQCAYFCENKLR (receptor, phage library variant, format as m9) [TACI_d2 R72G] | 0.6 |
| SLSCRKEQGKFYDHLLRDCISCASICGQHPKQCAYFCEDKLR (receptor, phage library variant, format as m9) [TACI_d2 N106D] | 1.2 |
| SLSCRKEQGKFYDHLLRDCISCASICGQHPKQCAYFCEAKLR (receptor, phage library variant, format as m9) [TACI_d2 N106A] | 1.2 |

Next:
[ask] # F (APRIL) lookup, item SLSCRKEQGKFYDHLLRDCVSCASICGQHPKQCAYFCENKLR (receptor, phage library variant, format as m9) [TACI_d2 I87V]
[reply] 1.4
